Reference source: patent US20190367516A1

molecular target: human M2 receptor (Homo sapiens, UniProt P08172); details: Receptor activity EC50, M2-GIRK1/4 activation test, acetylcholine at EC20; allosteric potency; in some cases mean values from two or more determinations
Sequence (P08172 whole entry): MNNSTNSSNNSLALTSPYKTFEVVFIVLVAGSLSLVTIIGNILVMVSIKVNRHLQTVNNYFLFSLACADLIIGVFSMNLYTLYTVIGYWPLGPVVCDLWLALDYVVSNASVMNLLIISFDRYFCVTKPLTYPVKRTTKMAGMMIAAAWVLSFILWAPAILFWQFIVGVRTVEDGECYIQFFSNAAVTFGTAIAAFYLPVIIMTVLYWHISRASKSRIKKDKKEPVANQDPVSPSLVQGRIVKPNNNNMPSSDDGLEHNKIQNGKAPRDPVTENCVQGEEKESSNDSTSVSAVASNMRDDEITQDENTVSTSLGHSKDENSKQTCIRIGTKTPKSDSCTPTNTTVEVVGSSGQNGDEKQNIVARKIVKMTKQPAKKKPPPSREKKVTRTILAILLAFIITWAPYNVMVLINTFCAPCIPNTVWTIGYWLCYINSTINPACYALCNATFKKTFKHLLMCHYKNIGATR
pEC50: −log10 of the molar value.
Reported Property: pEC50

These solved cases illustrate the format of a correct answer.
* CCC(NC(=O)c1cn(-c2ccc(F)cc2F)c2nc(N3CCC(O)C3)ccc2c1=O)C(F)(F)F (stereo in doubt) | 6.82
* CC[C@@H](NC(=O)c1cn(-c2ccc(F)cc2F)c2nc(N3CCC(O)C3=O)ccc2c1=O)C(F)(F)F (single isomer, unassigned) [Example 226] | 7.08
* CC[C@H](NC(=O)c1cn(-c2c(F)cc(F)cc2F)c2nc(N3C[C@@](C)(O)C[C@H]3C)ccc2c1=O)C(F)(F)F | 7.48
* CC[C@@H](NC(=O)c1cn(-c2ccc(F)cc2F)c2nc(N3CCCCC3=O)ccc2c1=O)C(F)(F)F | 6.71

P. O=C(N[C@H](C1CC1)C(F)(F)F)c1cn(-c2c(Cl)cc(F)cc2Cl)c2nc(N3C[C@@H](O)CC3=O)ccc2c1=O
Q. CC(NC(=O)c1cn(-c2ccc(F)cc2F)c2nc(N(C)C)ccc2c1=O)C(F)(F)F (racemic)
R. CC[C@@H](NC(=O)c1cn(-c2ccc(F)cc2F)c2nc(N3CCC(C)(O)C3=O)ccc2c1=O)C(F)(F)F (single isomer, unassigned) [Example 195]
S. CC(C)(CC(F)(F)F)NC(=O)c1cn(-c2c(F)cc(F)cc2Cl)c2nc(N3CCNC3=O)ccc2c1=O
T. CC(C)(C)[C@@H](NC(=O)c1cn(-c2c(F)cc(F)cc2F)c2nc(N3C[C@@H](O)CC3=O)ccc2c1=O)C(F)(F)F
Problem: Your job: order these 5 records by pEC50, ascending. In your reply, arrange the labels in the requested order.
Solution: R, Q, P, S, T
(R: 6.46, Q: 7.09, P: 7.38, S: 8.15, T: 8.40)

I. CC[C@@H](NC(=O)c1cn(-c2c(F)cc(F)cc2F)c2nc(N3CCC(O)C3=O)ccc2c1=O)C(F)(F)F (mixture of isomers) [Example 280]
II. O=C(NC12CC3CC(CC(C3)C1)C2)c1cn(-c2ccc(F)cc2F)c2nc(N3CCOC(CO)C3)ccc2c1=O (racemic)
Problem: Looking at recorded values for pEC50, does I or II come in lower? Refer to your chosen item by its label in the answer.
Solution: II

1. CC(C)CC(NC(=O)c1cn(-c2ccc(F)cc2F)c2nc(NCCF)ccc2c1=O)C(F)(F)F (stereo not drawn)
2. CN(C)c1ccc2c(=O)c(C(=O)Nc3c(F)cccc3F)cn(-c3ccc(F)cc3F)c2n1
Problem: Looking at recorded values for pEC50, does 1 or 2 come in lower? Refer to your chosen item by its label in the answer.
Solution: 2
(2: 6.98, 1: 7.38)
